Compiled notes: published pIC50 values involving Fructose-1,6-bisphosphatase 1 (Rattus norvegicus, UniProt P19112).
pIC50: −log10 of the molar value.
QUANTITY MEASURED: pIC50

Here is how some compounds turned out for pIC50.
INSERT INTO measurements (smiles_text, test_system, quantity_measured, readout_number) VALUES
  ('Nc1cccc2c1nc(-c1ccc(P(=O)(O)O)o1)n2Cc1ccc(C(F)(F)F)cc1', 'Fructose-1,6-bisphosphatase 1 (Rattus norvegicus, UniProt P19112)', 'pIC50', 4.70),
  ('Nc1cccc2c1nc(-c1ccc(P(=O)(O)O)o1)n2Cc1ccsc1', 'Fructose-1,6-bisphosphatase 1 (Rattus norvegicus, UniProt P19112)', 'pIC50', 4.70),
  ('CCSC(=O)c1oc(N)nc1-c1ccc(P(=O)(O)O)o1', 'Fructose-1,6-bisphosphatase 1 (Rattus norvegicus, UniProt P19112)', 'pIC50', 5.64),
  ('CC(C)Cn1c(-c2ccc(P(=O)(O)O)o2)nc2c(N)c(F)cc(CCCN(C)C)c21', 'Fructose-1,6-bisphosphatase 1 (Rattus norvegicus, UniProt P19112)', 'pIC50', 6.40);

(I) Nc1cccc2c1nc(-c1ccc(P(=O)(O)O)o1)n2Cc1ccccc1
(II) CC(C)Sc1oc(N)nc1-c1ccc(P(=O)(O)O)o1
(III) Nc1cccc2c1nc(-c1ccc(P(=O)(O)O)o1)n2CC12CCC(CC1)C2
(IV) Nc1ncnc2c1nc(-c1ccc(P(=O)(O)O)o1)n2CCc1ccccc1
(V) CC(C)Cn1c(-c2ccc(P(=O)(O)O)o2)nc2c(N)cccc21
Put the entries in order of pIC50, starting with the largest number. Your answer should be the labels, listed in the requested order.
II, III, V, I, IV

(1) CCCc1cc(F)c(N)c2nc(-c3ccc(P(=O)(O)O)o3)n(CC(C)C)c12
(2) Nc1nc(-c2ccc(P(=O)(O)O)o2)c(Cc2cccs2)o1
Given the two records 1 and 2 , choose the one whose pIC50 value is lower. Refer to your chosen item by its label in the answer.
2
(2: 5.43, 1: 6.19)
